# Test system: PC-3
# PROCEDURE DETAILS: Cytotoxicity, MTT assay, PC-3
# Format: cell-based, human
# ASSAY SETUP: human
REPORTED METRIC: IC50

Challenge: Any idea what IC50 was measured for CC(=O)N[C@H]1CSSC[C@@H](C(N)=O)NC(=O)[C@H](C(C)C)NC(=O)[C@H](C)NC(=O)[C@H](Cc2c[nH]cn2)NC1=O [N—Ac—CHAVC—NH2, N-Ac-Cys-His-Ala-Val-Cys-NH2] ?
Response given: > 100 µM

###

# Test system: MDA-MB231
# Type: cell-based, human
# ASSAY SETUP: 3 h
pIC50: −log10 of the molar value. Positions of bridges follow the written chain, without caps; N, C: chain ends. Residues, ends and D or L forms follow the SMILES beside them.
REPORTED METRIC: pIC50

Challenge: Any idea what pIC50 was measured for CC[C@H](C)[C@@H]1NC(=O)[C@H](CC(=O)O)NC(=O)[C@H](C(C)C)NC(=O)[C@H](C)NC(=O)[C@H](Cc2c[nH]cn2)NC(=O)[C@H](C)NC(=O)[C@@H](NC(C)=O)CSSC[C@@H](C(N)=O)NC1=O (Ac-CAHAVDIC-NH2; disulfide 1-8) ?
Response given: < 4.00

Challenge: Try this compound too: CC[C@H](C)[C@@H]1NC(=O)[C@H](CC(=O)O)NC(=O)[C@H](C(C)C)NC(=O)CNC(=O)[C@H](Cc2c[nH]cn2)NC(=O)[C@H](C)NC(=O)[C@@H](N)CSSC[C@@H](C(N)=O)NC1=O (H-CAHGVDIC-NH2; disulfide 1-8)
Response given: < 4.00

###

# System: MDA-MB231
# Assay type: cell-based, human
# ASSAY SETUP: 3 h
pIC50: −log10 of the molar value. Positions of bridges follow the written chain, without caps; N, C: chain ends. Residues, ends and D or L forms follow the SMILES beside them.
REPORTED METRIC: pIC50

Challenge: Any idea what pIC50 was measured for CC(=O)N[C@H]1CSSC[C@@H](C(N)=O)NC(=O)[C@H](CO)NC(=O)[C@H](CO)NC(=O)[C@H](C(C)C)NC(=O)CNC(=O)[C@H](Cc2c[nH]cn2)NC(=O)[C@H](CO)NC1=O (Ac-CSHGVSSC-NH2; disulfide 1-8) ?
Response given: < 4.00

Challenge: Try this compound too: CC[C@H](C)[C@@H]1NC(=O)[C@H](CC(=O)O)NC(=O)[C@H](C(C)C)NC(=O)CNC(=O)[C@H](Cc2c[nH]cn2)NC(=O)[C@H](C)NC(=O)[C@@H](NC(C)=O)CSSC[C@@H](C(N)=O)NC1=O (Ac-CAHGVDIC-NH2; disulfide 1-8)
Response given: < 4.00

###

# PROCEDURE DETAILS: Cytotoxicity, MTT assay, PC-3
# Assay type: cell-based, human
# ASSAY SETUP: human, PC-3 cells (human prostate cancer cell line); MTT assay; read-out: PC-3 Cytotox (IC50)
REPORTED METRIC: IC50

Challenge: Any idea what IC50 was measured for CC(=O)N[C@H]1CSSC[C@@H](C(N)=O)NC(=O)[C@H](C(C)C)NC(=O)CNC(=O)[C@H](Cc2c[nH]cn2)NC1=O [N—Ac—CHGVC—NH2, reference compound] ?
Response given: > 100 µM
